Target: eIF4A (Homo sapiens, UniProt P60842)
Sequence (P60842 whole entry): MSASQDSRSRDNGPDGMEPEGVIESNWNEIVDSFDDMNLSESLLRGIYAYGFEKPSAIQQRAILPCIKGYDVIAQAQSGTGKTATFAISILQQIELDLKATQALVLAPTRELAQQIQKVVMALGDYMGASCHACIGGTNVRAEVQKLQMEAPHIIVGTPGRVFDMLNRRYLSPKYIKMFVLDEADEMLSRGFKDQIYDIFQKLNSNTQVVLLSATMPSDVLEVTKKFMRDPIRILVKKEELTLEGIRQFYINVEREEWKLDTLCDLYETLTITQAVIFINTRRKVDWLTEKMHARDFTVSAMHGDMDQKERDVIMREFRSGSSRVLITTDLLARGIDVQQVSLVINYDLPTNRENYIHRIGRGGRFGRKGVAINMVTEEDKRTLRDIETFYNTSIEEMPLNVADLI
Assay: kinetic testing using the malachite green assay (ATP and RNA titration)
Assay type: biochemical
Set-up: 6xHis with TEV protease site (N, cleaved yes); made in house; host or cells: E. coli BL21-CodonPlus
Settings: RNA titration, 250 μM ATP; mixed-model inhibition fit; read-out: Kiapp for RNA
As shown below, each of these compounds has a reported Ki value.
Answer format: numeric, µM implied, no suffix.

structureSmilesString: CCCCc1ccc(-c2ccc(-c3cc(C(=O)O)c4cc([N+](=O)[O-])ccc4n3)o2)cc1
Ki / µM: 4.27

Q) I have this compound here, `CCCCc1ccc(-c2ccc(-c3cc(C(=O)O)c4cc(Br)ccc4n3)o2)cc1` , and I need its recorded Ki.
A) 9.59

====

Ki values, listed per item
Molecular target: eIF4A (Homo sapiens, UniProt P60842)
Experiment: kinetic testing using the malachite green assay (ATP and RNA titration)
Type: biochemical
Set-up: 6xHis with TEV protease site (N, cleaved yes); made in house; host or cells: E. coli BL21-CodonPlus
Conditions: ATP titration, 250 μg/mL RNA; mixed-model inhibition fit; read-out: Kiapp for ATP
Please respond with the number in µM and leave the unit unwritten.

structureSmilesString: CCCCc1ccc(-c2ccc(-c3cc(C(=O)O)c4cc([N+](=O)[O-])ccc4n3)o2)cc1
recordedMetric: Ki
unitTag: µM
reported: 4.79

# ---- query molecule ----
Q) Look up Ki for this molecule: `CCCCc1ccc(-c2ccc(-c3cc(C(=O)O)c4cc(Br)ccc4n3)o2)cc1`
A) 10.3

====

Biological target: eIF4A (Homo sapiens, UniProt P60842)
Assay: RNA-stimulated malachite green ATPase assay
Assay type: biochemical
Design: 6xHis with TEV protease site (N, cleaved yes); made in house; host or cells: E. coli BL21-CodonPlus
Conditions: comparison within the series
recordedMetric: potency in the eIF4A ATPase assay (in words)

Some compounds with known potency in the eIF4A ATPase assay (in words) results, for comparison:
structureSmilesString: CCCCc1ccc(-c2cccc(-c3cc(C(=O)O)c4cc([N+](=O)[O-])ccc4n3)n2)cc1
target: eIF4A (Homo sapiens, UniProt P60842)
reported: drop in potency
//
structureSmilesString: CCCCc1ccc(-c2ccc(-c3cc(C(=O)O)c4cc([N+](=O)[O-])ccc4n3)s2)cc1
target: eIF4A (Homo sapiens, UniProt P60842)
reported: large drop in potency
//
structureSmilesString: CCCCc1ccc(-c2ccc(-c3cc(C(=O)O)c4cc([N+](=O)[O-])ccc4n3)[nH]2)cc1
target: eIF4A (Homo sapiens, UniProt P60842)
reported: large drop in potency
//
structureSmilesString: CCCCc1ccc(-c2ccc(-c3cc(C(=O)O)c4ccc(Br)cc4n3)o2)cc1
target: eIF4A (Homo sapiens, UniProt P60842)
reported: moderate potency
//
structureSmilesString: CC(C)(C)OC(=O)Nc1cccc(-c2ccc(-c3cc(C(=O)O)c4cc([N+](=O)[O-])ccc4n3)o2)c1
target: eIF4A (Homo sapiens, UniProt P60842)
reported: low potency

Q) Report potency in the eIF4A ATPase assay (in words) for `CC(C)(C)OC(=O)Nc1ccc(-c2ccc(-c3cc(C(=O)O)c4cc([N+](=O)[O-])ccc4n3)o2)cc1` please.
A) low potency

Q) Query: potency in the eIF4A ATPase assay (in words); subject: `CCCCc1ccc(-c2ccc(-c3cc(C(=O)O)c4ccc(F)cc4n3)o2)cc1`
A) moderate potency

Q) What value of measured potency in the eIF4A ATPase assay (in words) is listed for `CCCCc1ccc(-c2ccc(-c3cc(C(=O)O)c4c(Cl)cccc4n3)o2)cc1` ?
A) large drop in potency

Q) Request the reported potency in the eIF4A ATPase assay (in words) associated with `CCCCc1ccc(-c2cccc(-c3cc(C(=O)O)c4cc([N+](=O)[O-])ccc4n3)c2)cc1`
A) drop in potency

====

Target: eIF4A (Homo sapiens, UniProt P60842)
Assay: RNA-stimulated malachite green ATPase assay
Format: biochemical
Parameters: 6xHis with TEV protease site (N, cleaved yes); made in house; host or cells: E. coli BL21-CodonPlus
Conditions: 750 nM eIF4A, 250 μM ATP, 0.25 mg/mL Yeast RNA, 4 h at 37° C.
Here, each record is paired with measured IC50 data.
The answer consists of two parts: a number and, after it, its unit.

These recorded examples may help you get a feel for the data.
structureSmilesString: CCCCc1ccc(-c2ccc(-c3cc(C(=O)O)c4ccc(Cl)cc4n3)o2)cc1
recordedMetric: IC50
reported: 21.7 µM

structureSmilesString: CCCCc1ccc(-c2ccc(-c3cc(C(=O)O)c4cc(Br)ccc4n3)o2)cc1
recordedMetric: IC50
reported: 26.6 µM

Q) # input compound: `CCCCc1ccc(-c2ccc(-c3cc(C(=O)O)c4cc([N+](=O)[O-])ccc4n3)o2)cc1` ; wanted: its IC50
A) 8.6 µM

====

Examples of compounds with documented pIC50 follow.
Target: eIF4A (Homo sapiens)
Experiment: FAM-RNA fluorescence polarization assay
Type: binding
Parameters: 6xHis with TEV protease site (N, cleaved yes); made in house; host or cells: E. coli BL21-CodonPlus
Conditions: FAM-A(CAA)5 RNA, 2 μM eIF4A; read-out: IC50, FAM-RNA FP assay
Lab note — pIC50 values are minus log10 of concentrations in M.

structureSmilesString: CCCCc1ccc(-c2ccc(-c3cc(C(=O)O)c4cc([N+](=O)[O-])ccc4n3)o2)cc1
reported: 4.23

Please find the next compound below.
Q) Which measured pIC50 belongs to `CCCCc1ccc(-c2ccc(-c3cc(C(=O)O)c4cc(Br)ccc4n3)o2)cc1` , tested on eIF4A (Homo sapiens)?
A) 3.79
